meta.source: PubChem BioAssay (NCI)

# Test system: HOP-62 NSCLC
# test-method-notes: NCI-60 one-dose screen, 48 h (100 = growth as untreated, 0 = no growth, -100 = all killed)
# assay-setup: 10 µM unless noted
The panel holds about 83,000 compounds, 20% with a hit somewhere; the sample as a whole holds those more often.
Record form. Attribute: growth. Fill in for each entry.
Kindly answer with a numeric value in %, unit omitted.

Task: For "O=C(NCc1ccco1)C1CCN(S(=O)(=O)c2ccc(Cl)cc2)CC1" , write its growth.
Output: 92.6

Task: For "CN1CCn2c(c(Sc3ccc(C(=O)NO)cc3)c3ccccc32)C1=O" , write its growth.
Output: 21.3

Task: For "O=C1/C(=C/c2ccc(Cl)cc2)N=C(c2ccccc2)N1CCc1cccs1" , write its growth.
Output: 108

Task: For "CCOc1ccc(/C=N\N2CCCCCC2)cc1OCC" , write its growth.
Output: 93.8

Task: For "CCN1CCN(c2nc3ccccc3c3c(=O)c4cc(F)ccc4sc23)CC1" , write its growth.
Output: 73.2

Task: For "Fc1c[c-]c(-c2ccccn2)c(F)c1.Fc1c[c-]c(-c2ccccn2)c(F)c1.[Cl][Pt+].[Cl][Pt+].c1ccc([PH+](C[PH+](c2ccccc2)c2ccccc2)c2ccccc2)cc1" , write its growth.
Output: 20.9

Task: For "C=C1CC[C@@H]2[C@@](C)(CCC[C@]2(C)C(=O)O)[C@@H]1CC[C@H](CO)CCO" , write its growth.
Output: 100

Task: For "COC(=O)c1c2c(c(C)[n+]([O-])c1C)C(=O)C(NCc1ccc(O)cc1)=CC2=O" , write its growth.
Output: -7.28

Task: For "COc1ccc(NC(=O)c2ccc3c(c2)nc(-c2ccc(Cl)cc2)n3-c2cc(C(C)(C)C)[nH]n2)cc1" , write its growth.
Output: 106

----------
# System: UO-31 renal
# test-method-notes: NCI-60 one-dose screen, 48 h (100 = growth as untreated, 0 = no growth, -100 = all killed)
# assay-setup: 10 µM unless noted
The panel holds about 83,000 compounds, 20% with a hit somewhere; the sample as a whole holds those more often. Calls of active or inactive are those of the source. The calls were made as follows: active = growth percent below 10; inactive = the rest.
Record form. Attribute: growth. Fill in for each entry.

Task: For "CN1CCN(CCCn2c3c(sc4ncccc43)c(=O)n3nnc(-c4ccccc4)c23)CC1" , write its growth.
Output: -90.8% (active)

Task: For CCC(C)[C@H]1O[C@]2(CC[C@@H]1C)C[C@@H]1C[C@@H](C/C=C(\C)[C@@H](OC3C[C@H](OC)C(O[C@H]4C[C@H](OC)[C@@H](O)[C@H](C)O4)[C@H](C)O3)[C@@H](C)/C=C/C=C3\CO[C@@H]4[C@H](O)C(C)=C[C@@H](C(=O)O1)[C@]34O)O2 (stereo partly drawn) , write its growth.
Output: 9.45% (active)

Task: For "Cc1c(C(=O)Nc2nc(-c3ccccc3)cs2)nnn1-c1ccccc1Br" , write its growth.
Output: 41.7% [50 µM] (inactive)

Task: For "Cc1oc2c(c1C(=O)N1CC[C@@H](N)C1)C(=O)c1c(c(O)c3ccccc3c1O)C2=O" , write its growth.
Output: 4.23% (active)

Task: For "Cn1c2c(cc(S(=O)(=O)c3ccccc3)c1=O)CCc1c-2cnn1-c1cccc(Cl)c1" , write its growth.
Output: -84.5% (active)

Task: For COC(=O)/C=C1/CCC2C3CCC4=CC(=O)C(Br)CC4(C)C3C(=O)CC12C (stereo not drawn) , write its growth.
Output: 81.1% (inactive)

Task: For "CC(C)OC1=C(Cl)C(=O)c2ccccc2C1=O" , write its growth.
Output: 76.7% (inactive)

Task: For "O=C1C(Br)=C(c2ccccc2)C(=O)C(Br)=C1c1ccccc1" , write its growth.
Output: 77.9% (inactive)

----------
Record form. Attribute: growth. Fill in for each entry.
# Tested on: NCI/ADR-RES ovarian
# test-method-notes: NCI-60 one-dose screen, 48 h (100 = growth as untreated, 0 = no growth, -100 = all killed)
# assay-setup: 10 µM unless noted
About 83,000 compounds went through this panel and 20% of them were active in at least one assay; those are over-represented in the sample as a whole.
Kindly answer with a numeric value in %, unit omitted.

Task: For "COc1nc2c(cc1S(=O)(=O)c1ccccc1)CCc1c-2cnn1-c1cccc(Cl)c1" , write its growth.
Output: 89.7

Task: For CCCCC(O)Cn1ncc(C(=O)OCC)c1NC(=O)NCc1ccccc1C(F)(F)F (stereo not given) , write its growth.
Output: 98.7

Task: For "COc1ccc(OC2=CC(=O)c3ccc(C)nc3C2=O)cc1" , write its growth.
Output: 87.5

Task: For "O=C(O)c1ccccc1Oc1cc(-c2ccco2)nc(OCCBr)n1" , write its growth.
Output: 105

Task: For "CCN1CCN(C(=S)SCC(=O)Nc2nc3ccc(OC)cc3s2)CC1" , write its growth.
Output: 99.6

Task: For "Cc1nc2ccc(Cl)cc2n1C" , write its growth.
Output: 112

Task: For "CCCN1CCN(c2ccc3nc(-c4ccc5nc(-c6ccc(C(F)(F)F)cc6)[nH]c5c4)[nH]c3c2)CC1" , write its growth.
Output: 74

Task: For "COc1cccc(OC(=O)c2ccccc2)c1OC(=O)c1ccccc1" , write its growth.
Output: 9.73

Task: For "O=S(=O)(OCCO)c1ccccc1" , write its growth.
Output: 102

Task: For "COc1ccc(Sc2ccc3[nH]c(=O)nc(N)c3c2)cc1" , write its growth.
Output: 103

Task: For "C[C@]1(CO)C[C@@H](O)C[C@]2(C)[C@@H]1CC[C@@]13C[C@@H]4[C@@H](C[C@H]12)[C@]4(C)C3" , write its growth.
Output: 105

Task: For "CCSc1nnc2c3cc(Br)ccc3n(C)c2n1" , write its growth.
Output: 109

Task: For "CCOc1ccc(-c2cnnn2-c2nonc2-n2cccc2)cc1" , write its growth.
Output: -5.39

Task: For "Cc1nc(NN)c([N+](=O)[O-])c(NN)n1" , write its growth.
Output: 119

Task: For "COc1ccc(/C=C2\CN(Cc3cn(CCCNc4ccnc5cc(Cl)ccc45)nn3)C/C(=C\c3ccc(OC)cc3)C2=O)cc1" , write its growth.
Output: 50.7

Task: For "O=c1onc(-c2ccccc2)c2ccccc12" , write its growth.
Output: 103

Task: For "Fc1ccccc1Nc1ccc2nnc(-c3ccncc3)n2n1" , write its growth.
Output: 99.2

Task: For C=C(C)COC(=O)c1ccccc1C(=O)OCC1(C)CO1 (stereo not given) , write its growth.
Output: 101

Task: For "O=C(Nc1ccc(Cl)c(Cl)c1)NC(CO)(CO)CO" , write its growth.
Output: 100

Task: For "COc1nc2c(cc1S(=O)(=O)c1ccccc1)CCc1c-2cnn1-c1ccccc1" , write its growth.
Output: 80.8

----------
# Test system: SF-268 CNS
# test-method-notes: NCI-60 one-dose screen, 48 h
# assay-setup: 10 µM unless noted
Compounds without any hit were thinned out: in the full panel of roughly 83,000, 20% have a hit. Calls of active or inactive are those of the source. Rule for the calls: active = growth percent below 10; inactive = the rest.
Please state which outcome applies, choosing from true (1) for active, false (0) for inactive

Task: Give the logged outcome of this assay for the following molecule: "O=C(N/N=C(\CS(=O)(=O)c1ccccc1)c1cc2cc(Br)ccc2oc1=O)c1ccccc1"
Output: false (0)

Task: Give the logged outcome of this assay for the following molecule: COC(=O)C1C2CC3c4[nH]c5cc(OC)ccc5c4CCN3CC2CC(OC2CCCCO2)C1OC (stereo not drawn)
Output: false (0)

Task: Give the logged outcome of this assay for the following molecule: "CCCCCCCC/C=C\CCCCCCCCOc1cccc(CC(=O)NCC[N+]2(C)CCCC2)c1"
Output: false (0)

Task: Give the logged outcome of this assay for the following molecule: "O=[N+]([O-])c1ccc(C=C2C(Cl)=C(Cl)C(Cl)=C2Cl)cc1"
Output: false (0)

Task: Give the logged outcome of this assay for the following molecule: "NC(=O)c1cc(I)ccc1NC(=O)COc1ccccc1"
Output: false (0)

Task: Give the logged outcome of this assay for the following molecule: "Fc1c[c-]c(-c2ccccn2)c(F)c1.Fc1c[c-]c(-c2ccccn2)c(F)c1.[Cl][Pt+].[Cl][Pt+].c1ccc([PH+](C[PH+](c2ccccc2)c2ccccc2)c2ccccc2)cc1"
Output: false (0)

Task: Give the logged outcome of this assay for the following molecule: "CC(C)N1CCN(c2ccc(OC[C@H]3CO[C@](Cn4cncn4)(c4ccc(Cl)cc4Cl)O3)cc2)CC1"
Output: false (0)

Task: Give the logged outcome of this assay for the following molecule: "O=c1c2c(=NCCN3CCCC3)cc3c(=O)n(CCCN4CCOCC4)c(=O)c4c(-c5ccc(CN6CCCC6)cc5)cc(c(O)n1CCCN1CCOCC1)c2c4-3"
Output: true (1)
